Give melting point for every item shown.

Look at this compound and give its reported melting point. "CNC(=O)c1cccc(NC(=O)Cc2cccc(Br)c2)c1" 176 to 178 °C

Now consider "O=C(NC(=O)c1cccs1)NC1CCN(Cc2c[nH]c3ccccc23)CC1" and answer again. 231 to 232 °C

Now consider "O=C(N[C@@H](CSc1ccccc1[N+](=O)[O-])C(=O)O)OCc1ccccc1" and answer again. 84 to 88 °C

Now consider COC(=O)c1cc(OC(F)F)cnc1C1=NC(C)(C(C)C)C(=O)N1 (configuration not stated) and answer again. 104 to 105 °C

Now consider "O=C(O)C(O)(c1cccs1)c1cccs1" and answer again. 84 °C

Now consider COC(=O)c1cccc(C(NCC(=O)Nc2c(C(C)C)cccc2C(C)C)c2ccccc2)c1 (configuration not stated) and answer again. 131 to 132 °C

Now consider "CN1CCC2(CC1)NC(=O)N(c1ccc(C#N)c(C(F)(F)F)c1)C2=O" and answer again. 188 to 189 °C

* * *

Give melting point for every item shown.

Look at this compound and give its reported melting point. CC(c1c[nH]cn1)C(N)CO (configuration not stated) 168 °C

Now consider CC1c2cc(OCC(=O)O)c(Cl)c(Cl)c2C(=O)C1(C)Cl (configuration not stated) and answer again. 179 to 187 °C

Now consider C[Si](C)(C1C=Cc2c(-c3ccccc3)cccc21)C1C=Cc2c(-c3ccccc3)cccc21 (configuration not stated) and answer again. 109 to 110 °C

Now consider "O=C(O)C(=O)CC(=O)c1cccn1Cc1cccc(Br)c1" and answer again. 164 to 166 °C

Now consider "FC(F)(F)CSc1nc(-c2ccc(Cl)cc2)c(-c2ccc(Cl)cc2)[nH]1" and answer again. 212 to 213 °C

Now consider "COCCOc1cc2ncc(C#N)c(Nc3ccc(C)c(O)c3)c2cc1OC" and answer again. 230 to 233 °C

Now consider "Cc1ccc(Cc2cnc(NCCCNc3ncccc3Cl)[nH]c2=O)cn1" and answer again. 91 to 94 °C

Now consider "O=C(O)CCN(CCCOc1ccc(C(=O)O)cc1)c1ccc(Cl)cc1" and answer again. 132 to 133 °C

Now consider "FC(F)(F)c1ccc2c(c1)SSSSS2" and answer again. 44 to 50 °C

Now consider "CCCc1ccc(Br)nn1" and answer again. 35 to 36 °C

Now consider "O=C(O)[C@@H]1CCCN1C(=S)CCc1ccccc1" and answer again. 86 to 88 °C

Now consider "CCn1c(NC)n[nH]c1=O" and answer again. 208 to 210 °C

* * *

Give melting point for every item shown.

Look at this compound and give its reported melting point. "C=CCSc1nnc(OC)c(C)c1C" 51 to 53 °C

Now consider CC(C(=O)O)c1ccccc1OS(C)(=O)=O (stereo not given) and answer again. 94 to 96 °C

Now consider "Cc1cccc(COc2cccc(OCc3cccc(Cl)n3)c2)c1C(=O)O" and answer again. 97 to 98 °C

Now consider CCCc1c(OCCCOc2ccc3c(c2CCC)OC(CCC#N)CC3)ccc(C(C)=O)c1O (stereo not given) and answer again. 89 to 89.5 °C

Now consider "CS(=O)(=O)c1ccc(NC(=O)c2ccccc2Br)cc1" and answer again. 168 to 169 °C

* * *

Give melting point for every item shown.

Look at this compound and give its reported melting point. "COc1ccc(-c2[nH]c3cn[nH]c(=O)c3c2Cl)cc1OC1CCC1" 285 to 287 °C

Now consider FC(F)(F)C1(c2cc(Cl)cc(Cl)c2)CC(c2ccc(-n3cncn3)cc2)=NO1 (stereo not drawn) and answer again. > 250 °C

Now consider "C(=C\c1nc(COc2ccc(CCCn3cnc4ccccc43)cc2)co1)/c1ccccc1" and answer again. 115 to 117 °C

Now consider "CC(=O)NC1(c2ccc(CN3CCN(c4ccccn4)CC3)cc2)CC1" and answer again. 145 to 147 °C

Now consider "COc1c(O)nc(-c2ccc(OCc3ccccc3)cc2)nc1O" and answer again. 251 to 252 °C

Now consider "CCOC(=O)CSc1nnc(S)s1" and answer again. 67 to 68 °C

Now consider CCC1C(=O)N(c2ccccc2)C(=S)N1c1ccc(Oc2ccccc2)cc1 (stereo not drawn) and answer again. 158 to 159 °C

Now consider "COC(=O)N1C(=O)c2ccccc2C1=O" and answer again. 184 °C

Now consider COCCCN1CC[C@@H](CNC(=O)c2cc(Cl)c(N)c3c2OC(C)(C)C3)[C@H](O)C1 (relative stereo) and answer again. 97 °C

Now consider "COc1ccc(-c2cc(C(F)F)n3ncc(-c4ccncc4)c3n2)cc1" and answer again. 206 °C

Now consider "CCCCCCCCCCCCS(=O)(=O)N[C@H]1CCCNC(=O)C1" and answer again. 100 to 101 °C

Now consider "CC(=O)N(C)Nc1nnc(-c2ccccc2C)s1" and answer again. 106 to 108 °C

Now consider "CCCc1oc(-c2ccccc2)nc1COc1ccc(COc2cccc(CC(=O)O)c2)cc1" and answer again. 115 to 116 °C

Now consider CC(=O)NCCn1ccc(=O)c(OCc2ccccc2)c1C(O)c1ccccc1 (stereo not drawn) and answer again. 180 to 182 °C

Now consider "COc1cc(NC(=O)OC(C)(C)C)c([N+](=O)[O-])cc1C#Cc1ccccc1" and answer again. 129 °C

Now consider O=C(O)CCC(O)c1ccc(-c2ccccc2Cl)cc1 (stereo not drawn) and answer again. 90 to 95 °C

Now consider "COc1ccc(C(=O)Nc2ccc3ccc(OCC(=O)N(C)C)nc3n2)cc1" and answer again. 165 °C

Now consider Cc1ccc(C(=O)NC(NC(=S)Nc2cccc(C(F)(F)F)c2F)C(F)(F)F)cc1 (stereo not drawn) and answer again. 179 to 181 °C

Now consider "CC(=O)OCC(C)(C)C(=O)N(O)Cc1ccccc1Cl" and answer again. 78 to 80 °C

Now consider "COC(=O)c1cc(OCc2c(C)cccc2C)c2nc(C)n(C)c2c1" and answer again. 165 to 169 °C

Now consider "CCOC(=O)C(C#N)=Cc1ccc([N+](=O)[O-])cc1C" and answer again. 180 to 210 °C

Now consider "CCOC(=O)C(CCC(C)(C)c1cc(O)c(C(C)(C)CCC(C(=O)OCC)C(=O)OCC)cc1O)C(=O)OCC" and answer again. 157 to 160 °C

Now consider Cc1cc(C)c2cc(C3CCNC(C)C3)sc2c1 (stereo not drawn) and answer again. 52 to 57 °C
